Entry source: the NIST ThermoML archive (doi:10.1021/je900370q)

The following molecules are shown together with reported Normal melting temperature values.
settings: Crystal; DTA
Field: numeric (°C). Do not append units.

# annotated cases, reported Normal melting temperature shown
INSERT INTO results (chem_smiles, unit_descriptor, observed_result) VALUES
  ('O=C(/C=C/c1ccc(-c2cccc([N+](=O)[O-])c2)o1)c1ccc(Cl)cc1', '°C', 170.00),
  ('O=C(/C=C/c1ccc(-c2cccc([N+](=O)[O-])c2)o1)c1cc2ccccc2oc1=O', '°C', 172.00),
  ('O=C(/C=C/c1ccc(-c2cccc([N+](=O)[O-])c2)o1)c1cccc([N+](=O)[O-])c1', '°C', 180.00),
  ('O=C(/C=C/c1ccc(-c2cccc([N+](=O)[O-])c2)o1)c1ccc(Br)cc1', '°C', 160.00);

Entry under test: O=C(/C=C/c1ccc(-c2cccc([N+](=O)[O-])c2)o1)c1ccc(O)cc1 . Its Normal melting temperature was 152.00

Entry under test: COc1ccc(C(=O)/C=C/c2ccc(-c3cccc([N+](=O)[O-])c3)o2)cc1 . Its Normal melting temperature was 141.00
